- Tgt: AGTR1 (Homo sapiens, UniProt P30556)
- Construct: host or cells: Pathunter CHO-K1 AGTR1 β-arrestin cell line (CHO-K1)
- Protocol description: DiscoveRx β-arrestin2 recruitment assay (enzyme complementation, Pathunter CHO-K1 AGTR1 β-arrestin cell line)
- Assay type: cell-based
- Run parameters: DiscoveRx β-arrestin2 recruitment, maximal response

# Molecule, DiscoveRx β-arrestin2 Ymax (%)
measured = [
    ("CCCCc1nc(Cl)c(C(=O)N(C)C)n1Cc1ccc(-c2cc(-c3ccccc3)ccc2-c2nn[nH]n2)cc1 [Example 381]", 37.4),
    ("CCc1nc2c(C)cc(C)nc2n1Cc1ccc(-c2cc(-c3cnn(C)c3)ccc2-c2nn[nH]n2)cc1 [Example 21]", 21.1),
    ("CCCCc1nc(Cl)c(C(=O)O)n1Cc1ccc(-c2cc(-c3cnn(C4CC4)c3)ccc2-c2nn[nH]n2)cc1 [Example 386]", 27.3),
    ("CCc1nc2c(C)cc(C)nc2n1Cc1ccc(-c2cc(Oc3ccccc3)ccc2-c2nnn[nH]2)cc1 [Example 204]", 42.4),
]

----------
Recorded EC50 for the following molecules
- Tgt: hAT1R (Homo sapiens, UniProt P30556)
- Sequence (P30556 whole entry): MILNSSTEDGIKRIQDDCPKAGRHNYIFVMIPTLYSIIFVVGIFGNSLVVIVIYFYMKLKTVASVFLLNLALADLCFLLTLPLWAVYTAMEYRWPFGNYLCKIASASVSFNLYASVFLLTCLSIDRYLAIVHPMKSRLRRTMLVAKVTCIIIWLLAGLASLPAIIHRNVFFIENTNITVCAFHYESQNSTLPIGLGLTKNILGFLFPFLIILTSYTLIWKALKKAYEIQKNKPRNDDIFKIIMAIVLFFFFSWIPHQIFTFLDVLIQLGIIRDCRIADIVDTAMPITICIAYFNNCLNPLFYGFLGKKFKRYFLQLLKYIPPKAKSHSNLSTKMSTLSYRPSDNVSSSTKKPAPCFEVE
- Protocol description: BRET Gq biosensor assay, agonist response, HEK293 cells
- Assay type: cell-based
- Run parameters: section of the 42nd table directly before the BRET P63 section
- Description: BRET β-arrestin2 and Gq Activation Assays In another aspect of the invention, association of the ATIR with signaling proteins is assessed using bioluminescence resonance energy transfer assays (Stephane Angers, Ali Salahpour et al. 2002). This technology measures the association between bioluminescent and fluorescent protein tags. Several of the plasmid constructs used in BRET experiments were previously described. […]
Endpoint name: EC50

# Molecule, Endpoint name, Measured
rows = [
    ("CCCCc1ncc(C(=O)NCC(C)(C)COC)n1Cc1ccc(-c2cc(-c3ccccc3)ccc2-c2nn[nH]n2)cc1 [Example 360]", "EC50", "> 100 µM"),
    ("CCCCC(=O)N(Cc1ccc(-c2cc(Oc3cccc(OC(F)(F)F)c3)ccc2-c2nn[nH]n2)cc1)C1(C(=O)O)CCCCC1 [Example 287]", "EC50", "> 100 µM"),
    ("CCCCC(=O)N(Cc1ccc(-c2cc(-c3ccccc3)ccc2-c2nn[nH]n2)cc1)C1(C(=O)O)CCCCC1 [Example 272]", "EC50", "> 100 µM"),
]

----------
- Tgt: AGTR1 (Homo sapiens, UniProt P30556)
- Construct: host or cells: Pathunter CHO-K1 AGTR1 β-arrestin cell line (CHO-K1)
- Protocol description: DiscoveRx β-arrestin2 recruitment assay (enzyme complementation, Pathunter CHO-K1 AGTR1 β-arrestin cell line)
- Assay type: cell-based
- Run parameters: DiscoveRx β-arrestin2 recruitment

# Compound, Tgt, EC50 [nM]
measured = [
    ("CCc1nc2c(C)cc(C)nc2n1Cc1ccc(-c2cc(N3CCC(C)CC3)ccc2-c2nn[nH]n2)cc1", "AGTR1 (Homo sapiens, UniProt P30556)", 15.1),
    ("CCc1nc2c(C)cc(C)nc2n1Cc1ccc(-c2cc(-c3ccc4ncccc4c3)ccc2-c2nn[nH]n2)cc1", "AGTR1 (Homo sapiens, UniProt P30556)", 12.9),
    ("CCCCC(=O)N(Cc1ccc(-c2cc(-c3ccc(NC(C)=O)cc3)ccc2-c2nn[nH]n2)cc1)[C@H](C(=O)O)C(C)C", "AGTR1 (Homo sapiens, UniProt P30556)", 241),
    ("CCCCC1=NC2(CCOC2)C(=O)N1Cc1ccc(-c2cc(-c3ccccc3)ccc2-c2nnn[nH]2)cc1 (single isomer, unassigned) [Example 146]", "AGTR1 (Homo sapiens, UniProt P30556)", 31.6),
    ("CCc1nc2c(C)cc(C)nc2n1Cc1ncc(-c2cc(-c3ccccc3)ccc2-c2nnn[nH]2)cn1", "AGTR1 (Homo sapiens, UniProt P30556)", 138),
]

----------
Recorded log10 of EC50 for the following compounds
- Tgt: AGTR1 (Homo sapiens, UniProt P30556)
- Construct: host or cells: Pathunter CHO-K1 AGTR1 β-arrestin cell line (CHO-K1)
- Protocol description: DiscoveRx IP1 accumulation assay (HTRF), agonist mode, Pathunter CHO-K1 AGTR1 β-arrestin cell line
- Format: cell-based
- Run parameters: read-out: IP-1 EC50
Endpoint name: log10 of EC50 (log10 of the value in nM)

# Compound, Tgt, Endpoint name, Measured
records = [
    ("CCCCC1=NC2(CCOC2)C(=O)N1Cc1ccc(-c2cc(-c3ccccc3O)ccc2-c2nnn[nH]2)cc1 (single isomer, unassigned) [Example 150]", "AGTR1 (Homo sapiens, UniProt P30556)", "log10 of EC50", 1.32),
    ("CCc1nc2c(C)cc(C)nc2n1Cc1ccc(-c2cc(N3CCCC(F)(F)C3)ccc2-c2nn[nH]n2)cc1", "AGTR1 (Homo sapiens, UniProt P30556)", "log10 of EC50", 1.43),
    ("CCC1=NC2(CCOC2)C(=O)N1Cc1ccc(-c2cc(-c3ccccc3)ccc2-c2nn[nH]n2)cc1 (single isomer, unassigned)", "AGTR1 (Homo sapiens, UniProt P30556)", "log10 of EC50", 2.28),
    ("CCc1nc2c(C)cc(C)nc2n1Cc1ccc(-c2cc(-n3cc(C)cn3)ccc2-c2nnn[nH]2)cc1", "AGTR1 (Homo sapiens, UniProt P30556)", "log10 of EC50", 1.35),
    ("CCc1cn(-c2ccc(-c3nnn[nH]3)c(-c3ccc(Cn4c(CC)nc5c(C)cc(C)nc54)cc3)c2)nn1", "AGTR1 (Homo sapiens, UniProt P30556)", "log10 of EC50", 1.48),
    ("CCCC1=NC2(CCOC2)C(=O)N1Cc1ccc(-c2cc(-c3ccccc3F)ccc2-c2nnn[nH]2)cc1 (single isomer, unassigned)", "AGTR1 (Homo sapiens, UniProt P30556)", "log10 of EC50", 2.31),
    ("CCc1nc2c(C)cc(C)nc2n1Cc1ccc(-c2cc(Oc3cncc(OC)c3)ccc2-c2nn[nH]n2)cc1", "AGTR1 (Homo sapiens, UniProt P30556)", "log10 of EC50", 2.89),
    ("CCc1nc2c(C)cc(C)nc2n1Cc1ccc(-c2cc(C3CCCC3)ccc2-c2nn[nH]n2)cc1", "AGTR1 (Homo sapiens, UniProt P30556)", "log10 of EC50", 2.63),
    ("CCc1nc2c(C)cc(C)nc2n1Cc1ccc(-c2cc(-c3ccc(C(=O)N(C)C)cc3)ccc2-c2nn[nH]n2)cc1", "AGTR1 (Homo sapiens, UniProt P30556)", "log10 of EC50", 1.25),
    ("CCc1nc2c(C)cc(C)nc2n1Cc1ccc(-c2cc(-c3ccc(F)cn3)ccc2-c2nn[nH]n2)cc1", "AGTR1 (Homo sapiens, UniProt P30556)", "log10 of EC50", 1.80),
    ("CCc1nc2c(C)cc(C)nc2n1Cc1cnc(-c2cc(-c3cccc(C)c3)ccc2-c2nnn[nH]2)nc1", "AGTR1 (Homo sapiens, UniProt P30556)", "log10 of EC50", 2.69),
    ("CCc1nc2c(C)cc(C)nc2n1Cc1ccc(-c2cc(C3CCCO3)ccc2-c2nn[nH]n2)cc1 (single isomer, unassigned) [Example 73]", "AGTR1 (Homo sapiens, UniProt P30556)", "log10 of EC50", 3.77),
    ("CCc1nc2c(C)cc(C)nc2n1Cc1ccc(-c2cc(-n3cc(C4CCCC4)nn3)ccc2-c2nnn[nH]2)cc1", "AGTR1 (Homo sapiens, UniProt P30556)", "log10 of EC50", 2.53),
    ("CCCC1=NC2(CCCC2)C(=O)N1Cc1ccc(-c2cc(-c3cc(OC)ccn3)ccc2-c2nn[nH]n2)cc1", "AGTR1 (Homo sapiens, UniProt P30556)", "log10 of EC50", 1.59),
    ("CCc1nc2c(C)cc(C)nc2n1Cc1ccc(-c2cc(-n3cc(CCO)nn3)ccc2-c2nnn[nH]2)cc1", "AGTR1 (Homo sapiens, UniProt P30556)", "log10 of EC50", 2.70),
    ("CCC1=NC2(CCOC2)C(=O)N1Cc1ccc(-c2cc(-c3ccccc3O)ccc2-c2nnn[nH]2)cc1 (single isomer, unassigned) [Example 170]", "AGTR1 (Homo sapiens, UniProt P30556)", "log10 of EC50", 2.67),
]

----------
Recorded pEC50 for the following compounds
- Tgt: AGTR1 (Homo sapiens, UniProt P30556)
- Construct: host or cells: Pathunter CHO-K1 AGTR1 β-arrestin cell line (CHO-K1)
- Protocol description: DiscoveRx β-arrestin2 recruitment assay (enzyme complementation, Pathunter CHO-K1 AGTR1 β-arrestin cell line)
- Type: cell-based
- Run parameters: DiscoveRx β-arrestin2 recruitment
pEC50: −log10 of the molar value.

# Compound, Tgt, pEC50
data = [
    ("CCCC1=NC2(CCOC2)C(=O)N1Cc1ccc(-c2cc(-c3ccccc3)ccc2-c2nnn[nH]2)cc1 (single isomer, unassigned) [Example 162]", "AGTR1 (Homo sapiens, UniProt P30556)", 6.83),
    ("CCc1nc2c(C)cc(C)nc2n1Cc1ccc(-c2cc(-c3cccnc3OC)ccc2-c2nn[nH]n2)cc1 [Example 24]", "AGTR1 (Homo sapiens, UniProt P30556)", 7.87),
    ("CCCC1=NC2(CCOC2)C(=O)N1Cc1ccc(-c2cc(-c3ccccc3O)ccc2-c2nnn[nH]2)cc1 (single isomer, unassigned) [Example 160]", "AGTR1 (Homo sapiens, UniProt P30556)", 7.06),
    ("CCc1nc2c(C)cc(C)nc2n1Cc1ccc(-c2cc(-c3cc(C)ccn3)ccc2C(=O)O)cc1 [Example 193]", "AGTR1 (Homo sapiens, UniProt P30556)", 7.28),
]
